Hello, the source for this data is BindingDB's records for doi:10.7270/Q29Z94WS, in case you need it.

Biological target: Sterol O-acyltransferase 1 (Rattus norvegicus, UniProt O70536)
Sequence (O70536 whole entry): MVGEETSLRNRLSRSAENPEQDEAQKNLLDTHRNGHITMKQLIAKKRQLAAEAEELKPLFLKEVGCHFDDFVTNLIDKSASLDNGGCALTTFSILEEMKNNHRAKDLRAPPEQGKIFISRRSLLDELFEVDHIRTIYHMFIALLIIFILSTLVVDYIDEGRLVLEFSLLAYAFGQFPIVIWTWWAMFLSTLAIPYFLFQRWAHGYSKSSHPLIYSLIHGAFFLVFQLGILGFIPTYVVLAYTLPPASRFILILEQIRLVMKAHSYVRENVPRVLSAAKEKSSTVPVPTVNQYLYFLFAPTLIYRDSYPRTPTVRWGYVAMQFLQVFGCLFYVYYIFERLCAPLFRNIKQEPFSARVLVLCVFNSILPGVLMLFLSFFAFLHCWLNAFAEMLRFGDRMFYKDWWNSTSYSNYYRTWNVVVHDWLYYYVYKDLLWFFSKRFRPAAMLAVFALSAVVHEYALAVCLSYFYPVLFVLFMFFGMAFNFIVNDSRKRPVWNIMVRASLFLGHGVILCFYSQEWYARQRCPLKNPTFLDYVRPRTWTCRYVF
Assay: ChEBML_28484
Quantity measured: IC50 (nM)
Numbers only, in nM.

In the examples that follow, each entry is paired with its recorded IC50.
{"columns": ["Molecule", "Target or system", "Data value"],
 "data": [
  ["CCCCCCCCCCCCn1nnnc1C(C(=O)Nc1c(OC)cc(OC)cc1OC)c1ccccc1 (stereo unspecified)", "Sterol O-acyltransferase 1 (Rattus norvegicus, UniProt O70536)", 52],
  ["CCCCCCCCCCCCn1nnc(C(C(=O)Nc2c(OC)cc(OC)cc2OC)c2ccccc2)n1 (stereo unspecified)", "Sterol O-acyltransferase 1 (Rattus norvegicus, UniProt O70536)", 14],
  ["CCCCCCCC[C@@H](SCCCCCC)C(=O)Nc1c(SC)cc[n+](C)c1SC", "Sterol O-acyltransferase 1 (Rattus norvegicus, UniProt O70536)", 22],
  ["CCCCCCCC[C@H](SCCCCCC)C(=O)Nc1c(SC)cc[n+](C)c1SC", "Sterol O-acyltransferase 1 (Rattus norvegicus, UniProt O70536)", 160],
  ["CCCCCCCCCCCCn1nnnc1C(C(=O)Nc1c(C(C)C)cccc1C(C)C)c1ccccc1 (stereo unspecified)", "Sterol O-acyltransferase 1 (Rattus norvegicus, UniProt O70536)", 79]
]}

Lookup: If you can, please state the reported IC50 value of CCCCCCCCCCCCn1nnc(C(C(=O)Nc2c(C(C)C)cccc2C(C)C)c2ccccc2)n1 (stereo unspecified) .
Found: 10

----------
Target: UniProt O70536
Test: Concentration required for the in vitro inhibition of Acyl coenzyme A:cholesterol acyltransferase (ACAT) in liver microsomes isolated from cholesterol-fed rats was determined
Quantity measured: IC50

Lookup: If you can, please state the reported IC50 value of CCCCCCCCCCCCn1nnc(C(C(=O)Nc2c(OC)cc(OC)cc2OC)c2ccccc2)n1 (stereo unspecified) .
Found: 24 nM
